Exercise: state measured EC50 for each of the compounds provided.
- Study system: Vasopressin V1a receptor (Homo sapiens, UniProt P37288)
- Sequence (P37288 whole entry): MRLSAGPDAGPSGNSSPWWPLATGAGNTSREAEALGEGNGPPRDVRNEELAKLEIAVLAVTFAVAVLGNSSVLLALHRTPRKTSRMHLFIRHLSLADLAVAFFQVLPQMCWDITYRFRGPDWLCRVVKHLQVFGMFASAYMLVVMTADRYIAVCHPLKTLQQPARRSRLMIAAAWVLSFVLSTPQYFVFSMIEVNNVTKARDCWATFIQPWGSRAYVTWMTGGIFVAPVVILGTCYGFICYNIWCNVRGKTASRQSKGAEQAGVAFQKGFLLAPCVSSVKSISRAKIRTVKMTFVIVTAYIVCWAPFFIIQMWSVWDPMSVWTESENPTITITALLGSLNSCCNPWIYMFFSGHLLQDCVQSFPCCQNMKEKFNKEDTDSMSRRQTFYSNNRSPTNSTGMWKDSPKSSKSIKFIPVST
- Protocol description: Agonist activity at human V1a receptor expressed in CHO cells assessed as calcium mobilization measured after 30 mins by Fluo-4-AM dye based FLIPR assay
Numbered stars: 1 amine (or outer) side, 2 acyl side, 3 side chain; on linkers, the order of the positions; unused ones are H or OH. Bridge positions count the residues as written; N and C are the ends. Square brackets hold non-standard residues; d marks the D form. Peptide text beside a SMILES is read from it. tBuAla = CC(C)(C)C[C@H](N)C(=O)O; Suc = O=C(CCC(=O)[*:2])[*:1]; Dap = NC[C@H](N)C(=O)O; Mpa = O=C(O)CCS

Compound	Observable	Data value
CC[C@H](C)[C@@H]1NC(=O)[C@H](Cc2ccc(O)cc2)NC(=O)CCSSC[C@@H](C(=O)N2CCC[C@H]2C(=O)N[C@@H](CC(C)C)C(=O)N[C@@H](CC(C)C)C(N)=O)NC(=O)[C@H](CC(N)=O)NC(=O)[C@H](CCC(N)=O)NC1=O ([Mpa]YIQNCPLL-NH2; disulfide 1-6)	EC50	> 100 nM
CC[C@H](C)[C@@H]1NC(=O)[C@H](CCC(=O)O)NC(=O)CCSSC[C@@H](C(=O)N2CCC[C@H]2C(=O)N[C@@H](CC(C)C)C(=O)NCC(N)=O)NC(=O)[C@H](CC(N)=O)NC(=O)[C@H](CCC(N)=O)NC1=O ([Mpa]EIQNCPLG-NH2; disulfide 1-6)	EC50	> 100 nM
CC[C@H](C)[C@@H]1NC(=O)[C@H](Cc2ccc(O)cc2)NC(=O)CCSSC[C@@H](C(=O)N2CCC[C@H]2C(=O)N[C@@H](C)C(=O)NCC(N)=O)NC(=O)[C@H](CC(N)=O)NC(=O)[C@H](CCC(N)=O)NC1=O ([Mpa]YIQNCPAG-NH2; disulfide 1-6)	EC50	4.2 nM
CC[C@H](C)[C@@H]1NC(=O)[C@H](Cc2ccc(O)cc2)NC(=O)CCSSC[C@@H](C(=O)N2C[C@H](O)C[C@H]2C(=O)N[C@@H](CC(C)C)C(=O)NCC(N)=O)NC(=O)[C@H](CC(N)=O)NC(=O)[C@H](CCC(N)=O)NC1=O	EC50	> 100 nM
CCCCCC[C@H](NC(=O)[C@@H]1CCCN1C(=O)[C@@H]1CSSCCC(=O)N[C@@H](Cc2ccc(O)cc2)C(=O)N[C@@H]([C@@H](C)CC)C(=O)N[C@@H](CCC(N)=O)C(=O)N[C@@H](CC(N)=O)C(=O)N1)C(=O)NCC(N)=O	EC50	3.1 nM

Attention now shifts to the item below.
Answer with the recorded EC50 for the compound listed here: CC[C@H](C)[C@@H]1NC(=O)[C@H](Cc2ccc(O)cc2)NC(=O)CCC(=O)NC[C@@H](C(=O)N2CCC[C@H]2C(=O)N[C@@H](CC(C)(C)C)C(=O)NCC(N)=O)NC(=O)[C@H](CC(N)=O)NC(=O)[C@H](CCC(N)=O)NC1=O (YIQN[Dap]P[tBuAla]G-NH2; linker N-5 via Suc) > 100 nM

---

- Study system: Oxytocin receptor (Homo sapiens, UniProt P30559)
- Sequence (P30559 whole entry): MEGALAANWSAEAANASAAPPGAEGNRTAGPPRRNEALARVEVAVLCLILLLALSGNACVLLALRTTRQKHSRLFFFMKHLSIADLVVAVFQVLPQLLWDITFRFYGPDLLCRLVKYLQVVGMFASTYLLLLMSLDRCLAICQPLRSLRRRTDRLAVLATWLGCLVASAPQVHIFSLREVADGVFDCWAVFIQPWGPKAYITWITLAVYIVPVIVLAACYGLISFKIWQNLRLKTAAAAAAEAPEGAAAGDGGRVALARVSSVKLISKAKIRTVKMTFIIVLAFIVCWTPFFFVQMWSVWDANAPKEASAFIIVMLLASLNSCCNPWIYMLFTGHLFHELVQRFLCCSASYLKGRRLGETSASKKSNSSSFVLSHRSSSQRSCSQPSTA
- Protocol description: Agonist activity at human OTR expressed in CHO cells assessed as calcium mobilization measured after 30 mins by Fluo-4-AM dye based FLIPR assay
Bridge positions count the residues as written; N and C are the ends. Square brackets hold non-standard residues; d marks the D form. Peptide text beside a SMILES is read from it. Mpa = O=C(O)CCS
Observable: EC50
Give the number first and the unit second.

Molecule	Study system	Observable	Data value
CC[C@H](C)[C@@H]1NC(=O)[C@H](Cc2ccc(O)cc2)NC(=O)CCSSC[C@@H](C(=O)N[C@@H](CC(C)C)C(=O)N[C@@H](CC(C)C)C(=O)NCC(N)=O)NC(=O)[C@H](CC(N)=O)NC(=O)[C@H](CCC(N)=O)NC1=O ([Mpa]YIQNCLLG-NH2; disulfide 1-6)	Oxytocin receptor (Homo sapiens, UniProt P30559)	EC50	3.4 nM

API: the following record is the query input.
Answer with the recorded EC50 for the molecule listed here: CC[C@H](C)[C@@H]1NC(=O)[C@H](Cc2ccc(O)cc2)NC(=O)CCSSC[C@@H](C(=O)N[C@@H](CO)C(=O)N[C@@H](CC(C)C)C(=O)NCC(N)=O)NC(=O)[C@H](CC(N)=O)NC(=O)[C@H](CCC(N)=O)NC1=O ([Mpa]YIQNCSLG-NH2; disulfide 1-6) 0.082 nM
